Listed next: entries and their corresponding pIC50.
target: hsDHODH (Homo sapiens (Human), UniProt Q02127); assay: Activity test at enzyme level: DHODH inhibition, DCIP absorbance at 600 nm; format: biochemical; settings: pharmaceutically acceptable esters (prodrugs of A and B series), hsDHODH enzyme test; read-out: IC50
Sequence (Q02127 whole entry): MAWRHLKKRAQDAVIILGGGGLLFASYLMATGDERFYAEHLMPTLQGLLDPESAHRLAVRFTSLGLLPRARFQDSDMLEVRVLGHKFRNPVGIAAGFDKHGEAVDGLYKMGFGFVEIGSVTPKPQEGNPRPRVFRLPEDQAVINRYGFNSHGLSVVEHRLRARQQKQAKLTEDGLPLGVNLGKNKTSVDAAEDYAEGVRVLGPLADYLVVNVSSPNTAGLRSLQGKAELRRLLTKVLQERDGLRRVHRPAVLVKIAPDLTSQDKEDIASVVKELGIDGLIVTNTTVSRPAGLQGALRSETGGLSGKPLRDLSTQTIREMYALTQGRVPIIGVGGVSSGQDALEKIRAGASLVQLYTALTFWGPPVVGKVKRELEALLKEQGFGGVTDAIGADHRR
pIC50: −log10 of the molar value.

{"smiles.representation": "CN(/N=C/c1ccccc1C(=O)OC1CCCCC1)c1nc(-c2ccccc2Cl)cs1", "value.operator": "<", "pIC50": 4.30}
{"smiles.representation": "CCOC(=O)c1ccccc1/C=N/Nc1nc(-c2ccccc2Cl)cs1", "value.operator": "=", "pIC50": 5.63}
{"smiles.representation": "CCOC(=O)c1ccccc1/C=N/N(C)c1nc(-c2ccccc2Cl)cs1", "value.operator": "=", "pIC50": 5.56}
{"smiles.representation": "CC(C)OC(=O)OCOC(=O)c1ccccc1/C=N/N(C)c1nc(-c2ccccc2Cl)cs1", "value.operator": "<", "pIC50": 4.30}
{"smiles.representation": "CCCCCCOC(=O)c1ccccc1/C=N/Nc1nc(-c2ccccc2Cl)cs1", "value.operator": "<", "pIC50": 4.30}

Hey, just so you know, these numbers are from patent US10919869B2.
